# Tested on: ovariectomated rats
# PROCEDURE SUMMARY: Oral estrogenic effects: weights of adrenal glands in ovariectomated rats
# Format: in vivo, rat
# CONDITION PARAMETERS: Experiment B, 10 μg/animal/day p.o. d1-d7
Kindly state Weights of adrenal glands (mean value) for each of the entries shown.
Lab book: enter the figure in mg, no units written.

Q: Weights of adrenal glands (mean value) lookup needed for C#C[C@]1(O)CC[C@H]2[C@@H]3CCc4cc(OS(=O)(=O)N(CC)CC)ccc4[C@H]3CC[C@@]21C , thanks.
A: 57.9

Q: // repeat for C[C@]12CC[C@@H]3c4ccc(O)cc4CC[C@H]3[C@@H]1CC[C@@H]2O [Example E2, estradiol] and report
A: 54.4

Q: Please answer likewise for C#CC1(O)CCC2C3CCc4cc(OS(=O)(=O)N5CCCC5)ccc4C3CCC21C (stereo not drawn)
A: 57.5

Q: Consider next the compound CCN(CC)S(=O)(=O)Oc1ccc2c(c1)CC[C@@H]1[C@@H]2CC[C@]2(C)[C@@H](O)C[C@@H]3C[C@]312 in the same way.
A: 53.9

Q: Would you mind doing C#C[C@]1(O)CC[C@H]2[C@@H]3CCc4cc(O)ccc4[C@H]3CC[C@@]21C as well?
A: 56.6

Q: Now try C#CC1(O)CCC2C3CCc4cc(OS(=O)(=O)N(C)C)ccc4C3CCC21C (stereo not drawn) .
A: 58.0

###

# Test system: ovariectomated rats
# PROCEDURE SUMMARY: Oral estrogenic effects: weights of adrenal glands in ovariectomated rats
# Format: in vivo, rat
# CONDITION PARAMETERS: Experiment B, 10 μg/animal/day p.o. d1-d7
READOUT TYPE: Weights of adrenal glands (mean value) (mg)
Numbers only here, please. The scale is mg.

Q: Recorded Weights of adrenal glands (mean value) for CCN(CC)S(=O)(=O)Oc1ccc2c(c1)CC[C@@H]1[C@@H]2CC[C@]2(C)C(=O)CC[C@@H]12 [J 804] , please?
A: 53.9

Q: Queued: CN(C)S(=O)(=O)Oc1ccc2c(c1)CC[C@@H]1[C@@H]2CC[C@]2(C)[C@@H](O)C[C@@H]3C[C@]312 [J 982]
A: 55.3

Q: One more compound: C[C@]12CC[C@@H]3c4ccc(O)cc4CC[C@H]3[C@@H]1CCC2=O [Example E1, estrone]
A: 49.8

Q: Another compound: CCN(CC)S(=O)(=O)Oc1ccc2c(c1)CC[C@@H]1[C@@H]2CC[C@]2(C)[C@@H](O)CC[C@@H]12 [J 981]
A: 50.5
